B1: NCF4 (parent)
chain: FVKILKDFPEEDDPTNWLRCYYYE

Variants of: B1
TEST_PROTOCOL: protein stability index of a GFP-peptide fusion (GPS, HEK-293T) (PSI 1-6); higher = more stable;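 note: lentivirally expressed fusions sorted by FACS into six bins by GFP to DsRed ratio, PSI derived from sequencing read proportions per bin multiplied by bin number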
MEASUREMENT_PARAMETERS: c terminus: a fixed tail appended
METRIC: protein stability index

## Input Data request, read-out protein stability index, for `L5R`
## Output 2.09

## Input Next variant: `W17M`
## Output 1.85

## Input Can you check `E11I` next?
## Output 2.4

## Input Query `R19G` next
## Output 1.09

## Input Also check `Y22K`
## Output 1.61

## Input Next up: `L18M`
## Output 1.72

## Input Next variant: `D7P`
## Output 2.49

## Input Request: `E24T`
## Output 1.23

## Input // next record `K6I`
## Output 1.37

## Input Also `F8K` , if possible.
## Output 1.8

## Input Moving on to `E11Y`
## Output 1.96

## Input For `E10D` then?
## Output 1.16

## Input Moving on to the next variant: `F1S`
## Output 2.55

## Input Try this variant too: `I4T`
## Output 1.54

## Input Quick one: `K3S`
## Output 2.32

## Input Another variant to check: `L5H`
## Output 3.08

## Input Another variant: `L18Q`
## Output 1.73

## Input Likewise for `L18V` ?
## Output 2.34

## Input And then `Y23L` , what is it?
## Output 1.39

## Input Would you kindly repeat that for `K6Q` ?
## Output 1.97

## Input Do the same for `W17C` please
## Output 2.55

## Input Try this variant too: `I4P`
## Output 2.15
